Values were extracted from patent US20250195685A1.

Exercise: for every item that follows, state its recorded kon.
- TARGET: T1, human CD8αα homodimer, recombinant protein (Acro Biosystems) (human, UniProt P01732 22-182)
- T1 construct: also called CD8αα antigen; biotinylated CD8α recombinant protein (CDA-H82E3)
- T1 sequence (P01732 22-182 limits assumed): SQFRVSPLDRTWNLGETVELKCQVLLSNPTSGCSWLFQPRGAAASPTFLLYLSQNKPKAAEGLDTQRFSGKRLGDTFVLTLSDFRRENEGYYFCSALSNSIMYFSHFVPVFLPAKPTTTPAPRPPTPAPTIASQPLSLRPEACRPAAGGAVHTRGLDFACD
- METHOD NOTES: BLI, whole antibody
Answers are plain numbers, in M⁻¹ s⁻¹.

CBD1381 whole antibody (VH N55Q of CBD1033), Fc-silenced human IgG1 (antibody, V domains shown) VH: QVQLVQSGAEVKKPGASVKVSCKASRYTFTDYNLHWVRQAPGQGLEWMGFIYPYQGGTGYAQKFQGRVTMTVDTSTSTAYMELSSLRSEDTAVYYCARDHRYNEGVSFDYWGQGTTVTVSS VL: DIQLTQSPSSLSASVGDRATITCRASESVDGFGNSFMNWYQQKPGKAPKLLIYLASNLESGVPSRFSGSGSGTDFTLTISSVQPEDFATYYCQQNNEDPYTFGQGTKLEIKR: 1.91e+06

We now examine a further binder.
Can you share its kon? I mean this binder: CBD1382 whole antibody (VH N55A of CBD1033), Fc-silenced human IgG1 (antibody, V domains shown) VH: QVQLVQSGAEVKKPGASVKVSCKASRYTFTDYNLHWVRQAPGQGLEWMGFIYPYAGGTGYAQKFQGRVTMTVDTSTSTAYMELSSLRSEDTAVYYCARDHRYNEGVSFDYWGQGTTVTVSS VL: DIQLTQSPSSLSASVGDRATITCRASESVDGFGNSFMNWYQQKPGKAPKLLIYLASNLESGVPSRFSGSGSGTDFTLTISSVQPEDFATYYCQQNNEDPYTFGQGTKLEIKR
1.63e+06
